For each of the molecules below, state its EC50.
test.system: UniProtKB P21453
protocol.details: Inhibition of cAMP production (HTRF cAMP HiRange), S1P1 CHO-K1 cells
Format: cell-based
reported.conditions: inhibition of cAMP production, S1P1 CHO-K1 cells; read-out: hS1P1 cAMP pEC50 (converted)

>>> df
                                   molecule  experimental_result
0  O=C(O)Cn1nnc2cc(-c3noc(-c4ccccc4Br)n3)ccc21             > 316 nM
1  c1ccc(Cc2noc(-c3ccc4c(c3)nnn4C3CCCC3)n2)cc1             > 316 nM
2  CC(C)n1nnc2cc(-c3nc(-c4cn[nH]c4)no3)ccc21             > 316 nM

Each of the following entries comes with a recorded value; kindly state EC50 for each.
1. Cc1cc(-c2noc(-c3ccc4c(c3)nnn4CC(C)(C)O)n2)c(C)o1
2. COC(=O)Cn1nnc2cc(-c3noc(-c4ccccc4Br)n3)ccc21
3. C=CCNc1ccc(-c2nc(-c3cn[nH]c3)no2)cc1C#N
4. COC(=O)C12C3C4C1C1C2C3C41c1nc(-c2ccc3c(c2)nnn3C(C)C)no1 (stereo not shown)
5. CC(C)n1nnc2cc(-c3noc(C45C6C7C4C4C5C6C74C(=O)O)n3)ccc21 (stereo not shown)

Reply:
> 316 nM
> 316 nM
< 316 nM
> 316 nM
> 316 nM

Look at each molecule and report its EC50.
1. Cc1ccsc1-c1noc(-c2ccc3c(c2)nnn3C(C)(C)C)n1
2. Cc1cc(-c2noc(-c3ccc4c(c3)nnn4C(C)C)n2)c(C)o1
3. CCn1nnc2cc(-c3noc(-c4ccccc4Br)n3)ccc21
4. Cc1ccccc1-c1nc(-c2ccc3c(c2)nnn3CC(C)(C)O)no1
5. CC(C)n1nnc2cc(-c3nc(-c4cccnc4Cl)no3)ccc21

Reply:
1: < 316 nM; 2: < 316 nM; 3: > 316 nM; 4: < 316 nM; 5: < 316 nM

----------
test.system: human sphingosine-1-phosphate receptor 1 (S1P1) (Homo sapiens (Human))
Sequence (P21453 whole entry, looked up): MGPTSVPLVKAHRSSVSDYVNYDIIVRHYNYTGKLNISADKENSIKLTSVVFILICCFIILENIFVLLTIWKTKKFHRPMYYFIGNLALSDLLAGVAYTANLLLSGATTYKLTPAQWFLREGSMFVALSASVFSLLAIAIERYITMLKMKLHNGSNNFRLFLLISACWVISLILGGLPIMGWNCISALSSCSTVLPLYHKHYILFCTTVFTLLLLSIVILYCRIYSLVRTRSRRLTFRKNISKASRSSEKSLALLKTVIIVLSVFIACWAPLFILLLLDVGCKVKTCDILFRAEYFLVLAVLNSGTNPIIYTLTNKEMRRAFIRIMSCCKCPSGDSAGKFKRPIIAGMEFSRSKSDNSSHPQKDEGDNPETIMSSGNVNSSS
protocol.details: Inhibition of cAMP production (HTRF cAMP HiRange), S1P1 CHO-K1 cells
Format: cell-based
reported.conditions: CHO-K1; efficacy (SPAN) normalized to fingolimod; read-out: hS1P1 cAMP SPAN
readout: Emax

Consider the following illustrative entries.
>>> print(df.to_string())
                                smiles_repr  readout  experimental_result
0  COc1ccccc1-c1nc(-c2ccc3c(c2)nnn3C(C)C)ns1     Emax                > 75%
1  Cc1ccccc1-c1noc(-c2ccc3c(cnn3C(C)C)c2)n1     Emax                > 75%
2  CC(C)n1ccc2cc(-c3nc(-c4ccccc4O)no3)ccc21     Emax                > 75%
3  CC(C)n1nnc2cc(-c3noc(C4CCC(F)(F)CC4)n3)ccc21     Emax                < 75%

As a next step, examine the compound that follows.
Query: So what's the measured Emax for this one? CC(C)Oc1ccc(-c2ccc(-c3ccc4c(c3)nnn4C(C)C)cc2)cc1C#N
Reply: < 75%

----------
System: paclitaxel induced peripheral neuropathy
protocol.details: Reversal of allodynia induced by paclitaxel in mice (s.c. or p.o., von Frey frequency method)
Assay type: in vivo, c57bl/6 mice
reported.conditions: Mus musculus, sc, 0.5 h, 1 mg/kg s.c., tested 30 min after dosing, read-out: Screen @ 1 mg/kg sc (% MPE)
For each entry below, report its inhibition in vivo at 1 mg/kg value.

The examples below pair each entry with its known result.
In [3]: df
Out[3]:
                                   molecule                        readout  experimental_result
0  N#Cc1cc(-c2nc(-c3ccc4c(c3)CC(=O)N4)no2)ccc1NCC1CC1 [Compound 210]  inhibition in vivo at 1 mg/kg                < 50%
1  CCC1(CC)CC(=O)c2cc(-c3nc(-c4ccc(C(N)=O)cc4)no3)ccc2O1 [Compound 179]  inhibition in vivo at 1 mg/kg                > 50%
2  CC(C)Nc1ccc(-c2nc(-c3ccc4c(c3)CC(=O)N4)no2)cc1C#N [Compound 107]  inhibition in vivo at 1 mg/kg                < 50%

With those in mind, consider the next molecule.
Query: // query inhibition in vivo at 1 mg/kg value for entry Cc1ccsc1-c1noc(-c2ccc3c(c2)nnn3C(C)C)n1 [Compound 169]
Reply: > 50%
